Cited source for all entries: patent EP4793287A1

ASSAYED_SYSTEM: T1, Recombinant human CD47 protein (DIMA BIOTECH, Cat# PME-100008) (human, UniProt Q08722 19-139, limits assumed)
T1 construct: Bought protein, coated on ELISA plates; also called CD47 antigen
T1 sequence (Q08722 19-139 limits assumed): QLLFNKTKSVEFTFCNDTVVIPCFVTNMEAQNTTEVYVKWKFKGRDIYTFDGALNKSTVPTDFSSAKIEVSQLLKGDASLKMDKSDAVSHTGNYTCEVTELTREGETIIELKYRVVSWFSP
ASSAY_COMMENT: ELISA on coated recombinant human CD47
MEASURED_PROPERTY: EC50 (nM)

[
  {
    "BINDER": "CD47 TMEAbody activated (antibody, IgG1, V domains shown, Cys 61 (Y61C): 20K PEG blocker cleaved off by legumain (asparaginyl endopeptidase); what remains on the Cys is not stated, The CD47 TMEAbody after treatment with legumain / asparaginyl endopeptidase; IgG1) VH: QQQLEESGGGLVKPEGSLTLTCTASGFSFSSGYDMCWVRQAPGRGLEWIACIYTRSSGGTCYASWAKGRFTISKTSSTVDLRMTSLTAADTATYFCAGGRSSYRLNLWGQGALVTVSS VL: DVVMTQTPSPVEAAVGGTVTIKCQASQSISNELSWYQQKPGQPPKLLIYRASTLESGVSSRFKGSGSGTEFTLTISDLECADAATYYCQSTFYGDYGNAFGGGTEVVVK",
    "MEASURED_PROPERTY": "EC50",
    "OBS_VALUE": 0.15
  },
  {
    "BINDER": "CD47 TMEAbody (70H1.IgG1.Y61C + 20K PEG) (antibody, V domains shown, Cys 61 (Y61C) conjugated with PEG of approximately 20K molecular weight (blocker, cleavable by legumain), IgG1; The same question of backbone applies as for 70H1.IgG1.Y61C; also called 70H1 TMEAbody; 70H1; IgG1 + 20K PEG) VH: QQQLEESGGGLVKPEGSLTLTCTASGFSFSSGYDMCWVRQAPGRGLEWIACIYTRSSGGTCYASWAKGRFTISKTSSTVDLRMTSLTAADTATYFCAGGRSSYRLNLWGQGALVTVSS VL: DVVMTQTPSPVEAAVGGTVTIKCQASQSISNELSWYQQKPGQPPKLLIYRASTLESGVSSRFKGSGSGTEFTLTISDLECADAATYYCQSTFYGDYGNAFGGGTEVVVK",
    "MEASURED_PROPERTY": "EC50",
    "OBS_VALUE": 0.72
  },
  {
    "BINDER": "70H1.IgG1.Y61C (antibody, V domains shown, IgG1; also called 70H1 IgG1-mutation; 70H1 mutant VH-61 (Y-C)) VH: QQQLEESGGGLVKPEGSLTLTCTASGFSFSSGYDMCWVRQAPGRGLEWIACIYTRSSGGTCYASWAKGRFTISKTSSTVDLRMTSLTAADTATYFCAGGRSSYRLNLWGQGALVTVSS VL: DVVMTQTPSPVEAAVGGTVTIKCQASQSISNELSWYQQKPGQPPKLLIYRASTLESGVSSRFKGSGSGTEFTLTISDLECADAATYYCQSTFYGDYGNAFGGGTEVVVK",
    "MEASURED_PROPERTY": "EC50",
    "OBS_VALUE": 0.07
  },
  {
    "BINDER": "70H1 (antibody, V domains shown, Rabbit-derived variable regions; also called 70H1.IgG1; 70H1 antibody) VH: QQQLEESGGGLVKPEGSLTLTCTASGFSFSSGYDMCWVRQAPGRGLEWIACIYTRSSGGTYYASWAKGRFTISKTSSTVDLRMTSLTAADTATYFCAGGRSSYRLNLWGQGALVTVSS VL: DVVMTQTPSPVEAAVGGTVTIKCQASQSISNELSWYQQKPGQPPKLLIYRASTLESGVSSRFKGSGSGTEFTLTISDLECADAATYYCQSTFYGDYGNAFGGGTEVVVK",
    "MEASURED_PROPERTY": "EC50",
    "OBS_VALUE": 0.12
  }
]
